- system-tested: T1, Recombinant truncated human his-tag B7-H3 protein (amino acids 1-461 of SEQ ID NO:1 with a carboxy terminal … (human, UniProt Q5ZPR3 29-461))
- T1 construct: also called his-tagged B7-H3 protein; recombinant human his-tagged B7-H3 protein
- T1 sequence: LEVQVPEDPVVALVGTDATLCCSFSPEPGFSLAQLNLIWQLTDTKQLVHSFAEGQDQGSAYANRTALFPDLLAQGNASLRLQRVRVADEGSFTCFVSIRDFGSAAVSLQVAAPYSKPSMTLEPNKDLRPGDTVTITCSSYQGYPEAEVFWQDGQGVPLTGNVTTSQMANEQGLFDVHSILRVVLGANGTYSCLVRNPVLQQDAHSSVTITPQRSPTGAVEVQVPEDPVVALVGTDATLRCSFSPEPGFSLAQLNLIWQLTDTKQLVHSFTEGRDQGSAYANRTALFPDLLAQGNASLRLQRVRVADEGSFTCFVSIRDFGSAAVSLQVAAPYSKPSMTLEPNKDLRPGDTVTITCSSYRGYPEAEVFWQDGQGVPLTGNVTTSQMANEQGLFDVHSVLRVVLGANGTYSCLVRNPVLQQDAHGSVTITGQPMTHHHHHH
- run-description: SPR (BIAcore 3000), antibody captured by anti-human Fc, his-tagged B7-H3 as analyte from 100 nM, 1:1 model

| binder | binding result |
| --- | --- |
| B3-2H1 (antibody, V domains shown, It was captured by anti-human Fc) VH: QVQLQQSGAEVEKPGASVEVSCRASGYTFTSYYIHWVRQAPGQGLEWVGMITPLSGGTTYAQKFQGRVTMTRDTSTSTVYMNLSSLRSEDTAVYFCARGGRAVASSFEFWGQGTLVTVSS VL: QSVLTQPRSVSGSPGQSVTISCTGTSSDVGGYNYVSWYQQHPGKAPKLMIYDVSKRPSGVPDRFSGSKSGNTASLTISGLQAEDEADYYCCSYAGSYTEVFGTGTKVTVL | binds |
| B3-2E3 (antibody, V domains shown, It was captured by anti-human Fc) VH: QVQLVESGGGVVQPGRSLRLSCVASEFTFSSYTIHWVRQAPGKGLEWVAVISHDGSNKYYADSVKGRFTISRDNSKNTLYLQMSSLRAEDTAVYYCAGDRYVYNYYGMDVWGQGTTVTVSS VL: DIVMTQSPSSLSAYVGDRVTITCRASQDIRTYLAWYQQKPGTAPKLLISGASILRSGVPSRFSGSGSGRDFTLSITSLQPEDFATYYCQQLYSYPPWTFGQGTKVEIK | binds |
| B3-A6 (antibody, V domains shown, It was captured by anti-human Fc, so it was tested as an antibody with a human Fc) VH: QVQLQQSGPGLVKPSQTLSLTCAISGDSVSSNSAAWNWIRQSPSRGLEWLGRTYYRSKWYNDYAVSVKSRITINPDTSKNQFSLQLNSVTPEDTAVYYCAREGIAVAALWDWGQGTLVTVSS VL: QAVLTQPPSASGTPGQRVTISCSGSSSNIGSNYVSWYQQLPGTAPKLLMYSNNHRPSGVPDRFSGSKSGTSASLAISGLRTEDEADYYCAAWDDSLSGQVFGGGTKLTVL | binds |
